# maps each entry to its pEC50
experimental-target: ABCA4 P1380L (Homo sapiens, UniProt P78363, P1380L)
Construct: expressed in transfected cells
Sequence (P78363 whole entry P1380L): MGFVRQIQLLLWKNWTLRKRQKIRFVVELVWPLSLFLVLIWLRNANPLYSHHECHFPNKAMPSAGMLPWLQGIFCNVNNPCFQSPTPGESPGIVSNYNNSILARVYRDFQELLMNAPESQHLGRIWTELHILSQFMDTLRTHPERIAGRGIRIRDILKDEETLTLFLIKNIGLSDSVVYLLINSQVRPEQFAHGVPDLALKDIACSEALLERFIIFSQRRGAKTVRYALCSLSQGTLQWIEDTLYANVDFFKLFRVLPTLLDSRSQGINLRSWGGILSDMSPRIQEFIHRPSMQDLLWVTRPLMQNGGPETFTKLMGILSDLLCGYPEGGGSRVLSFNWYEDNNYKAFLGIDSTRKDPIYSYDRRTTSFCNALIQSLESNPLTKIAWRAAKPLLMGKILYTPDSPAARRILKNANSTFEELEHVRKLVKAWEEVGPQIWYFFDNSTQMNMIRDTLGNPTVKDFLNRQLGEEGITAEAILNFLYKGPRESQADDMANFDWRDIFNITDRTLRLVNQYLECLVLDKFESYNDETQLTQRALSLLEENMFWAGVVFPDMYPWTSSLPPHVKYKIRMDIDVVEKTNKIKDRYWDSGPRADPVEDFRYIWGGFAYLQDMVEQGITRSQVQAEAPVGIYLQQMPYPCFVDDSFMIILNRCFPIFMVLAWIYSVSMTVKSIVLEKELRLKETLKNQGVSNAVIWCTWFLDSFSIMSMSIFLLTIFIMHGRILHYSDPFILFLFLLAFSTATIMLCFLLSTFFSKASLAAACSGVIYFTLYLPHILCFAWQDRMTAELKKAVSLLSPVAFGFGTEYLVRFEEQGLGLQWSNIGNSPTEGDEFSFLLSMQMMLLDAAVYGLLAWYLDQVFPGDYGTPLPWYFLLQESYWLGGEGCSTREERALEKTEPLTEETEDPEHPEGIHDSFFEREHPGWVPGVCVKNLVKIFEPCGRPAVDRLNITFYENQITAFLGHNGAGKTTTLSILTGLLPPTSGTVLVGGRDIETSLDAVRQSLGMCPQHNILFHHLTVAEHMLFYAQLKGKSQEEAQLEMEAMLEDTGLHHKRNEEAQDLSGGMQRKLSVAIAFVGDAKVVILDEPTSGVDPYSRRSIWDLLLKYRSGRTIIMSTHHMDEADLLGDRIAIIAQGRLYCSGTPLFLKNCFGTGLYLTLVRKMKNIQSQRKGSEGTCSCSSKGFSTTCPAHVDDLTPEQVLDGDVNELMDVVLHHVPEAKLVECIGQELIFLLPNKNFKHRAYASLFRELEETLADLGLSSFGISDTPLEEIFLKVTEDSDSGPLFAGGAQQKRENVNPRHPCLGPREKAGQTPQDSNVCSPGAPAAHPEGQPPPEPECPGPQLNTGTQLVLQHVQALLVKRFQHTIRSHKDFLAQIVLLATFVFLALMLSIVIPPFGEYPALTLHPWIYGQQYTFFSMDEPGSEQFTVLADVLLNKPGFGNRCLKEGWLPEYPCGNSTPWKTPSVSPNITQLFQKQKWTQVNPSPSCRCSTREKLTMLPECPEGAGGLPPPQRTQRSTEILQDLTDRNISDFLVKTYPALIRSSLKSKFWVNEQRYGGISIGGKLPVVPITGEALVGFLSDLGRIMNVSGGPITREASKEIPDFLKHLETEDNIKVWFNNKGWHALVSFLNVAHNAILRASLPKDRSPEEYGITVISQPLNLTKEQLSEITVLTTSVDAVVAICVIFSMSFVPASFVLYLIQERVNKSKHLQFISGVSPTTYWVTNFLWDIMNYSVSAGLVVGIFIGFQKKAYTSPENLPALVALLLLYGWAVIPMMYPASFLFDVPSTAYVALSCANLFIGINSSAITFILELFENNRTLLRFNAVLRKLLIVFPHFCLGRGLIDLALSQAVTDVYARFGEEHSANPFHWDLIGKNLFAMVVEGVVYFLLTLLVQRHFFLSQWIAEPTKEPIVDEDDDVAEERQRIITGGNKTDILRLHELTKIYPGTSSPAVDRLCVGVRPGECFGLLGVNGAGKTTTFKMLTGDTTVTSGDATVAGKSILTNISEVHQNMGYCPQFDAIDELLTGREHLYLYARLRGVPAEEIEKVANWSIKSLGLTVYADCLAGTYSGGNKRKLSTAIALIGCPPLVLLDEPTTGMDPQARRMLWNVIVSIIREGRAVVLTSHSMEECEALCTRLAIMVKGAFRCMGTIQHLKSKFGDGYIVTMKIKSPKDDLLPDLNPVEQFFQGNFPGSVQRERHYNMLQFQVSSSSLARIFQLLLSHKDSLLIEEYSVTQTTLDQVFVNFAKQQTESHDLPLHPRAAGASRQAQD
method-description: A4 correction dose-response assay: ABCA4 P1380L HiBit protein expression
Assay type: cell-based
test-context: HEK-293 cells stably expressing HiBit-tagged ABCA4 P1380L; 24 h treatment; top concentration 30 μM; read-out: ABCA4 P1380L EC50, Emax
pEC50: −log10 of the molar value.

Known results for molecules:
Cc1cc(C)c(Oc2nc(-c3cncc(Cl)c3)ccc2NS(C)(=O)=O)c(C2CC2)n1 [Compound I-40] :: > 6.00
Cc1cc(C)c(Oc2nc(-c3cncc(S(C)(=N)=O)c3)ccc2NS(C)(=O)=O)c(C)n1 (stereo not drawn) [Compound I-116] :: < 4.60

// query pEC50 value for entry Cc1nc(C2CC2)nc(C2CC2)c1Oc1nc(-c2cncc(C#N)c2)ccc1NS(C)(=O)=O [Compound I-150]
> 6.00

// query pEC50 value for entry Cc1nc(Oc2nc(-c3cncc(C#N)c3)ccc2NS(C)(=O)=O)c(C)s1 [Compound I-107]
< 4.60

// query pEC50 value for entry Cc1cc(C)c(Oc2nc(N3CCC(C#N)CC3)ccc2NS(C)(=O)=O)c(C)c1 [Compound I-244]
4.60 to 5.00

// query pEC50 value for entry Cc1cc(C2CC2)nc(C)c1Oc1nc(-c2cncc(S(C)(=O)=O)c2)ccc1NS(C)(=O)=O [Compound I-263]
5.00 to 6.00

// query pEC50 value for entry Cc1cc(C)c(Oc2nc(-c3cncc(Cl)c3)ccc2S(=O)(=O)N(C)Cc2ccccc2)c(C)c1 [Compound I-85]
< 4.60

// query pEC50 value for entry Cc1nc(N2CC3(COC3)C2)nc(C)c1Oc1nc(-c2cncc(C#N)c2)ccc1NS(C)(=O)=O [Compound I-160]
< 4.60

// query pEC50 value for entry Cc1cc(C)c(Oc2nc(-c3cncc(N4CCOCC4)c3)ccc2NS(C)(=O)=O)c(C)n1 [Compound I-201]
5.00 to 6.00

// query pEC50 value for entry Cc1nc(C)c(Oc2nc(-c3cncc(C#N)c3)ccc2N(C)S(C)(=O)=O)c(C2CC2)n1 [Compound I-157]
< 4.60

// query pEC50 value for entry Cc1cc(C)c(Oc2nc(-c3cncc(C4CC4)c3)ccc2NS(C)(=O)=O)c(C)n1 [Compound I-232]
> 4.60

// query pEC50 value for entry Cc1cc(C)c(Oc2nc(-c3cncc(Cl)c3)ccc2S(=O)(=O)NC(C)(C)C)c(C)c1 [Compound I-99]
< 4.60

// query pEC50 value for entry Cc1cc(C(F)(F)F)nc(C2CC2)c1Oc1nc(-c2cncc(C#N)c2)ccc1N(C)S(C)(=O)=O [Compound I-156]
> 4.60

// query pEC50 value for entry Cc1cc(C)c(Oc2[nH]c(-c3cncc(C#N)c3)cc(=O)c2NS(C)(=O)=O)c(C)n1 [Compound I-325]
5.00 to 6.00

// query pEC50 value for entry Cc1cc(C)c(Oc2nc(-c3ccc(C#N)nc3C)ccc2NS(C)(=O)=O)c(C)c1 [Compound I-6]
4.60 to 5.00

---

# maps each entry to its EC50
experimental-target: ABCC6 WT (Homo sapiens, UniProt O95255)
Construct: expressed in transfected cells; host or cells: HEK-293 (transient, Lipofectamine 2000)
method-description: ABCC6 WT assay: HiBit protein expression
Assay type: cell-based
test-context: HEK-293 cells transiently expressing HiBit-tagged ABCC6 WT; 24 h treatment; top concentration 20 μM; read-out: ABCC6 WT EC50, Emax

Known results for compounds:
Cc1nc(C(F)(F)F)nc(C2CC2)c1Oc1nc(-c2cncc(C#N)c2)ccc1S(=O)(=O)NC1CC1 :: < 1000 nM
Cc1cc(C2CC2)nc(C2CC2)c1Oc1nc(-c2cncc(C#N)c2)ccc1S(=O)(=O)NC1CCOCC1 :: 1000 to 10000 nM
Cc1cc(C)c(Oc2nc(N3CCN(C(=O)C4CC4)CC3)ccc2NS(C)(=O)=O)c(C)c1 :: 1000 to 10000 nM
Cc1cc(C)c(Oc2cc(-c3cncc(Cl)c3)cnc2N(C)S(=O)(=O)c2cnn(C)c2)c(C)c1 :: ≥ 25000 nM
Cc1nc(C2CC2)c(Cl)cc1Oc1nc(-c2cncc(C#N)c2)ccc1NS(C)(=O)=O :: < 1000 nM
Cc1nc(C(F)F)nc(C2CC2)c1Oc1nc(-c2cncc(C#N)c2)ccc1S(=O)(=O)NC1CC1 :: ≥ 25000 nM

// next entry
// query EC50 value for entry "CCS(=O)(=O)Nc1ccc(-c2cncc(C#N)c2)nc1Oc1c(C)cc(C(F)(F)F)nc1C1CC1"
< 1000 nM

---

# maps each entry to its EC50
experimental-target: ABCC6 WT (Homo sapiens)
method-description: ABCC6 WT assay: HiBit protein expression
test-context: HEK-293 cells transiently expressing HiBit-tagged ABCC6 WT; 24 h treatment; top concentration 20 μM; read-out: ABCC6 WT EC50, Emax

Known results for compounds:
Cc1cc(C)c(Oc2nc(-c3cncc(Cl)c3)ccc2S(=O)(=O)N2CCCC2)c(C)c1 [Compound I-96] :: 1000 to 10000 nM
Cc1cc(Oc2nc(-c3cncc(C#N)c3)ccc2NS(C)(=O)=O)c(C)nc1C [Compound I-226] :: < 1000 nM
COC1CC(NS(=O)(=O)c2ccc(-c3cncc(Cl)c3)nc2Oc2c(C)cc(C)cc2C2CC2)C1 (stereo not drawn) [Compound I-74] :: 1000 to 10000 nM
Cc1cc(C)c(Oc2nc(-c3cncc(C4COC4)c3)ccc2NS(C)(=O)=O)c(C)n1 [Compound I-216] :: < 1000 nM

Missing value: EC50, ABCC6 WT (Homo sapiens), entry Cc1cc(C(F)F)nc(C)c1Oc1nc(-c2ccnc(C#N)c2)ccc1NS(=O)(=O)C1CC1 [Compound I-203] . Fill in?
< 1000 nM

Missing value: EC50, ABCC6 WT (Homo sapiens), entry Cc1cc(C)c(Oc2nc(-c3cncc(Cl)c3)ccc2S(=O)(=O)N(C)C)c(C)c1 [Compound I-97] . Fill in?
< 1000 nM

Missing value: EC50, ABCC6 WT (Homo sapiens), entry Cc1cc(C)c(Oc2nc(-c3cncc(Cl)c3)ccc2S(=O)(=O)N[C@@H](c2ccccc2)C(F)(F)F)c(C)c1 [Compound I-83] . Fill in?
1000 to 10000 nM

Missing value: EC50, ABCC6 WT (Homo sapiens), entry Cc1nc(N2CC(F)(F)C2)nc(C)c1Oc1nc(-c2cncc(C#N)c2)ccc1NS(C)(=O)=O [Compound I-170] . Fill in?
< 1000 nM

Missing value: EC50, ABCC6 WT (Homo sapiens), entry Cc1nc(C)c(C2CC2)cc1Oc1nc(-c2cncc(C#N)c2)ccc1NS(C)(=O)=O [Compound I-229] . Fill in?
1000 to 10000 nM

---

# maps each entry to its EC50
experimental-target: ABCB4 WT (Homo sapiens, UniProt P21439)
Sequence (P21439 whole entry): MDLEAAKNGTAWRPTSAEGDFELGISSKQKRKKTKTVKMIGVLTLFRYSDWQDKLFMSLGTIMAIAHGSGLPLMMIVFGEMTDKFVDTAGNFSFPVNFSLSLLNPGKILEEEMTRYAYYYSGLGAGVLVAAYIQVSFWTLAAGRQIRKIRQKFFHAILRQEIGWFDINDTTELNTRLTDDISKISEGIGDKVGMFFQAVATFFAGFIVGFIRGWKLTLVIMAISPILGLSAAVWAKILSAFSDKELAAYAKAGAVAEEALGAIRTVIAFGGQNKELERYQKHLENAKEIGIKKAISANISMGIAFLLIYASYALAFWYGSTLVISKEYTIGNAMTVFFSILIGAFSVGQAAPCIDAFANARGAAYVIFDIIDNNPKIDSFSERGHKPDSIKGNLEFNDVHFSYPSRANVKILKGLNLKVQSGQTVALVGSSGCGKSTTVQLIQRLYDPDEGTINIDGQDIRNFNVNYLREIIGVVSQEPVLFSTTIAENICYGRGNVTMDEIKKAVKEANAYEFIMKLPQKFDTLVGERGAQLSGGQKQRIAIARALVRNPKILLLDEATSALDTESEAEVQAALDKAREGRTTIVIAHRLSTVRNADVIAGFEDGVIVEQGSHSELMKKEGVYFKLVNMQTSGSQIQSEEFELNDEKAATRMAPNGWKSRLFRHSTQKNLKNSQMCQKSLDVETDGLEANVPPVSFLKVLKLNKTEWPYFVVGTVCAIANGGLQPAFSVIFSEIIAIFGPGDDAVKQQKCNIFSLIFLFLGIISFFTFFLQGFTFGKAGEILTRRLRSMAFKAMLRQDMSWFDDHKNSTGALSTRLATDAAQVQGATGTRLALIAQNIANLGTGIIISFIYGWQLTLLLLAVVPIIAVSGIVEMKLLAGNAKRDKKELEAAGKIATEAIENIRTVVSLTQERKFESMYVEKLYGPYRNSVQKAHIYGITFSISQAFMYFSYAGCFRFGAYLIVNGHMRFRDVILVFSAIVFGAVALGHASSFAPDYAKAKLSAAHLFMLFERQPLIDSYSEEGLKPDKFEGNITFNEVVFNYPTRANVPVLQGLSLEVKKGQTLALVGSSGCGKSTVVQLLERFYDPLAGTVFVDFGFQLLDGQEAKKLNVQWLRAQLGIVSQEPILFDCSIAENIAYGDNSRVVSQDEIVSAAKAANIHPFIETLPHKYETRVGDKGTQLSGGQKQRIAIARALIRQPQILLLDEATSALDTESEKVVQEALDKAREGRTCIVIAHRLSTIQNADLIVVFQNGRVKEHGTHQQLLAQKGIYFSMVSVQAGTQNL
method-description: ABCB4 WT assay: HiBit protein expression
test-context: HEK-293 cells stably expressing HiBit-tagged ABCB4 WT; 24 h treatment; top concentration 30 μM; read-out: ABCB4 WT EC50, Emax

Known results for compounds:
Cc1cc(C)c(Oc2nc(-c3cncc(Cl)c3)ccc2S(=O)(=O)Nc2cnn(C)c2)c(C2CC2)c1 :: 1 to 10 µM
Cc1cc(C(F)(F)F)nc(C2CC2)c1Oc1nc(-c2cncc(C#N)c2)ccc1S(=N)(=O)C1CC1 (stereo not drawn) :: < 25 µM

// query EC50 value for entry "CNS(=O)(=O)c1ccc(-c2cncc(C#N)c2)nc1Oc1c(C)cc(C(F)(F)F)nc1C"
1 to 10 µM

// query EC50 value for entry "Cc1nc(C(F)(F)F)cc(C2CC2)c1Oc1nc(-c2cncc(C#N)c2)ccc1N(C)S(C)(=O)=O"
< 25 µM

---

experimental-target: ABCD2 WT (Homo sapiens, UniProt Q9UBJ2)
Sequence (Q9UBJ2 whole entry): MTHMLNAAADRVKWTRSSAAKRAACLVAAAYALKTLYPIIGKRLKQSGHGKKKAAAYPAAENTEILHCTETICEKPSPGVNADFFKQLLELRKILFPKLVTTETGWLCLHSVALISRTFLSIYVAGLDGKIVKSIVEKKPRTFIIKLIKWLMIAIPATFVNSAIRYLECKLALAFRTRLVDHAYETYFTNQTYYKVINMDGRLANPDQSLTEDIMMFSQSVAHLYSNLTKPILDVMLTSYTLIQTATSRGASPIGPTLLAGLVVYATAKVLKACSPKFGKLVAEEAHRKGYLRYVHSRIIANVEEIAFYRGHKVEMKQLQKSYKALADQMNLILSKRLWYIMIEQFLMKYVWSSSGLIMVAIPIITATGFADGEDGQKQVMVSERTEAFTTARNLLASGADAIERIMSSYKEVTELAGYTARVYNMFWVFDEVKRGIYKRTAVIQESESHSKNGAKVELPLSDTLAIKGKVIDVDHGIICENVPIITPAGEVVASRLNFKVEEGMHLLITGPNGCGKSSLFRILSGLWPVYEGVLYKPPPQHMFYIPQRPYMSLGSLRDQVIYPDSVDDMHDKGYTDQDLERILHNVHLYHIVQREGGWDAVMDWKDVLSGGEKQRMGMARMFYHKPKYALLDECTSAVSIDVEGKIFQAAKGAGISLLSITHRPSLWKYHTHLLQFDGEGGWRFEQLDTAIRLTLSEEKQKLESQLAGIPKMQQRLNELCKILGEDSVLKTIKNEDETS
method-description: D2 correction dose-response assay: ABCD2 WT HiBit protein expression
test-context: HEK-293/ABCD2 WT cells, 24 hours treatment, HiBit luminescence; class combines EC50 and Mean MaxAct (fold); read-out: ABCD2 WT EC50, Emax
# maps each entry to its EC50

Known results for compounds:
Cc1cc(C)c(Oc2nc(-c3cncc(Cl)c3)ccc2N(C2CC2)S(C)(=O)=O)c(C)c1 :: 1 to 10 µM
Cc1cc(C)c(Oc2nc(-c3cncc(C#N)c3)ccc2NS(C)(=O)=O)c(C)n1 :: < 1 µM
Cc1cc(C2CC2)nc(C)c1Oc1nc(-n2ccc(C#N)n2)ccc1NS(C)(=O)=O :: 1 to 10 µM

// next entry
// query EC50 value for entry "Cc1cc(C)c(Oc2nc(N3CCN(C(=O)N(C)C)CC3)ccc2NS(C)(=O)=O)c(C)c1"
10 to 25 µM
